# study system: Cad1 (UniProt P24813)
# Sequence: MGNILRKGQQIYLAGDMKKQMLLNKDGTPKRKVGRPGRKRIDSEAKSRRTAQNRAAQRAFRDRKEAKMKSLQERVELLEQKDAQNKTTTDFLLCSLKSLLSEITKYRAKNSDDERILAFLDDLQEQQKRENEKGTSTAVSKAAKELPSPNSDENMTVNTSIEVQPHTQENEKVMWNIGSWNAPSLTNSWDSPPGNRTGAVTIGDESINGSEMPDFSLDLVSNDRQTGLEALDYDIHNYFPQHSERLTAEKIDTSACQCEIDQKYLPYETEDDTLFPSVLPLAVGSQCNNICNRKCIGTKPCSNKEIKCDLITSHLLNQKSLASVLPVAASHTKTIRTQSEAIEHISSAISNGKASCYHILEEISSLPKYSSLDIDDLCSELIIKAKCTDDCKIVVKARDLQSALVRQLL
# experiment notes: PBM E-score (8-mer binding enrichment) (E-score (-0.5 to 0.5)); higher = stronger / more preferred TF binding
# condition notes: protein concentration: 100 nM; construct: GST-full length
Over roughly 33,000 sequences, “E-score (-0.5 to 0.5)” has its median near -0.0014; the highest 2% begin near 0.25. This excerpt belongs to a sample that is enriched for the highest values.
property label: PBM E-score
The answer should be a number; do not append a unit.

Reference set, count: 5
AATAAGAG : 0.0662
CTTTGTCA : 0.278
CTAGCTAC : -0.0695
CTGCTTAA : 0.0117
CGCATTCC : -0.216

Look up and state reported PBM E-score for "AATAAGAA" 0.252

Give the measured PBM E-score for "ATAAAACA" 0.0107

Using the record for "GGCTTACA" , state its measured PBM E-score. 0.229

###

# study system: Cad1 (UniProt P24813)
# Sequence: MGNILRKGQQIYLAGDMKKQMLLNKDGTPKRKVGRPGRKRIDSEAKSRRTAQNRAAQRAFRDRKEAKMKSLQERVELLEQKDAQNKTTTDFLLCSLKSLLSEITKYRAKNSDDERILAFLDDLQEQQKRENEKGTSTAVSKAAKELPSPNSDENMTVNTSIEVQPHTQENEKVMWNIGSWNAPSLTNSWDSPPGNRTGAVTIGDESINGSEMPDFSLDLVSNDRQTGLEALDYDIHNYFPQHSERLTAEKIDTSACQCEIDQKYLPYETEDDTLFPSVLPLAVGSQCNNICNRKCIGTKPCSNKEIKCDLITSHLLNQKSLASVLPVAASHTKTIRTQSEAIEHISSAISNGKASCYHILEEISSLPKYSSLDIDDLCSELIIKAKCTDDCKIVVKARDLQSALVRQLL
# experiment notes: PBM E-score (8-mer binding enrichment) (E-score (-0.5 to 0.5)); higher = stronger / more preferred TF binding
# condition notes: protein concentration: 100 nM; construct: GST-full length
Whole data set: some 33,000 sequences, median “E-score (-0.5 to 0.5)” near -0.0014, cut for the highest 2% near 0.25. The list comes from a sample in which the highest values are over-represented; it also holds close analogues and randomly drawn sequences.
property label: PBM E-score
The answer should be written as a number, with no unit following it.

Worked cases, answers included:
CGAAGAGA : 0.106
GCATCGAC : -0.0789
TACGCTGA : 0.275
AAGGGACG : -0.195

Consider the record given below.
Report PBM E-score for "GACATTAA" 0.124
